# reported OD490 value, Well 2; entries follow
Test system: Hela cell line
Assay: Cytotoxicity MTS assay, Hela cell line;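 note: blank control wells received 0.025% DMSO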
Assay type: cell-based
Conditions: Hela cell line, MTS, 25μM, first assay

| compound | OD490 value, Well 2 |
| --- | --- |
| CCOC(=O)c1[nH]c(C2NC(=S)NC(C)=C2C(=O)OC)c(C(=O)OCC)c1C (centres unmarked) | 2.1978 |
| CCOC(=O)c1[nH]c(C2NC(=O)NC(C)=C2C(=O)Nc2ccccc2OC)c(C(=O)OC)c1C (centres unmarked) | 2.5337 |
| CCOC(=O)c1[nH]c(C2NC(=O)NC(C)=C2C(=O)Nc2ccc(Cl)cc2)c(C(=O)OCC)c1C (centres unmarked) | 2.6228 |
| CCOC(=O)c1c(C2NC(=O)NC(C)=C2C(=O)Nc2ccccc2C)[nH]c(C(=O)OC)c1C (centres unmarked) [D2] | 2.6653 |
| CCOc1ccccc1C1NC(=S)NC(C)=C1C(=O)Nc1ccc(Cl)cc1 (centres unmarked) | 1.9622 |
| CCOC(=O)c1c(C2NC(=O)NC(C)=C2C(=O)Nc2ccccc2)[nH]c(C(=O)OC)c1C (centres unmarked) | 2.3409 |
| CCOC(=O)c1[nH]c(C2NC(=O)NC(C)=C2C(=O)Nc2ccccc2C)c(C(=O)OC)c1C (centres unmarked) | 2.5977 |
| CCOC(=O)c1c(C2NC(=O)NC(C)=C2C(=O)Nc2ccccc2OC)[nH]c(C(=O)OC)c1C (centres unmarked) [D1] | 2.2546 |

Hello, the source for this data is paper PMC8037182, in case you need it.
